# experimentalTarget: HLA-A*0201 (human)
# assayProcedure: competition with radiolabeled probe peptide for purified soluble HLA-A*0201
Hi there, I'd appreciate the recorded pIC50 for every entry that follows.
Answers are plain numbers, as −log10 of the molar value.

>  <binder>
QIVGGVYLL (modifications not checked)

>  <pIC50>
6.64

$$$$
>  <binder>
CLVDYPYRL (modifications not checked)

>  <pIC50>
6.36

$$$$
>  <binder>
KVLVLNPSV (modifications not checked)

>  <pIC50>
7.30

$$$$

Now consider a different binder.
[in] pIC50 lookup needed for GMFDSSVLC (modifications not checked) , thanks.
[out] 6.94

These data points were gathered from patent US20060093617A1.
